Biological target: Human BCMA (human) (UniProt Q02223)
Experiment: SPR, IgG on chip, huBCMA analyte
Kd reference

>  <binder>
COMBO_Rd4_0.6nM_C23 (antibody, V domains shown, IgG) VH: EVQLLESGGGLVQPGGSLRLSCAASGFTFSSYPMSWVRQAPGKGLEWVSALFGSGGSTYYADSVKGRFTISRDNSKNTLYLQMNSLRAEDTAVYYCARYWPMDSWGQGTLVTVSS VL: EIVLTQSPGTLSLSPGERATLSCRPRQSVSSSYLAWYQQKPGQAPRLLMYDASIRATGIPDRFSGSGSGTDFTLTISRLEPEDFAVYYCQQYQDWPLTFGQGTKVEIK

>  <Kd [nM]>
0.028

$$$$
>  <binder>
A02_Rd4_6nM_C07 (antibody, V domains shown, IgG) VH: EVQLLESGGGLVQPGGSLRLSCAASGFTFSSYAMNWVRQAPGKGLEWVSAIGGSGGSLPYADSVKGRFTISRDNSKNTLYLQMNSLRAEDTAVYYCARYWPMDSWGQGTLVTVSS VL: EIVLTQSPGTLSLSPGERATLSCRASQSVSPYYLAWYQQKPGQAPRLLMYDASIRATGIPDRFSGSGSGTDFTLTISRLEPEDFAVYYCQQYERWPLTFGQGTKVEIK

>  <Kd [nM]>
0.128

$$$$
>  <binder>
A02_Rd4_6nM_C10 (antibody, V domains shown, IgG) VH: EVQLLESGGGLVQPGGSLRLSCAASGFTFSSYAMNWVRQAPGKGLEWVSAISDSGGSCWYADSVKGRFTISRDNSKNTLYLQMNSLRAEDTAVYYCARYWPMTPWGQGTLVTVSS VL: EIVLTQSPGTLSLSPGERATLSCRASQSVEMSYLAWYQQKPGQAPRLLMYDASIRATGIPDRFSGSGSGTDFTLTISRLEPEDFAVYYCQQYAHWPLTFGQGTKVEIK

>  <Kd [nM]>
0.07

$$$$
